Reported normalized RNA/DNA level with ligand (log10) values for a set of variants
B1: library; a variant is named by its letters at N, in order (parent)
chain: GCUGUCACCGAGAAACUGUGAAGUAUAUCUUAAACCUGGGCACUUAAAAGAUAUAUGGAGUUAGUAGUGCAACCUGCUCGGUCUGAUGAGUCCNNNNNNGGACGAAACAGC

- Variants of: B1
- experiment: normalized RNA/DNA level with ligand (relative to sTRSVctl = 100) (log10 (% of sTRSVctl)); HEK293T; ligand: cyclic di-GMP (c-di-GMP-II aptamer); ligand concentration (+) RNA-Seq: 1 mM; higher = less ribozyme self-cleavage, higher mRNA level
- measurement.context: reporter: mCherry (pCS4076), ligand present: yes
Lab note: write the figure by itself, no unit.

CAUCCU : 1.77
CUCCAC : 1.84
GAACCA : 1.8
AACGUG : 1.7

Record summary for `CACGUC` : reported normalized RNA/DNA level with ligand (log10) = 1.87

Short answer for `CACCUG` : normalized RNA/DNA level with ligand (log10) was 1.85

Briefly, normalized RNA/DNA level with ligand (log10) measured for `CUCACA` : 1.83

In plain terms, `UUUGCG` has a documented normalized RNA/DNA level with ligand (log10) of 1.88

`GAACGG` yielded normalized RNA/DNA level with ligand (log10) of 1.78

Measured normalized RNA/DNA level with ligand (log10) of `UCGGUU` : 1.79

# normalized RNA/DNA level with ligand (log10) (variant: `UCGAUU` ) is 1.74

The variant identified as `UUUUAG` registered its normalized RNA/DNA level with ligand (log10) at 1.89

Data provenance is the supplement of paper PMC6757056.
